Source: paper PMC3615439

Quick reference: k′w of the listed items.
Experiment Notes: Lipophilicity by reverse-phase HPLC
Format: physicochemical
Conditions Used: aqueous phase pH 7.5, text calls it log k′w
// no unit, no text: just the number

Guide cases for k′w, answers given:
Clc1ccc(CCNCCNCCc2ccc(Br)cc2)cc1Cl | 3.31
Clc1ccc(CCNCCNCCc2ccc(I)cc2)cc1Cl | 3.71
Fc1cccc(CCNCCNCCc2ccc(Cl)c(Cl)c2)c1 | 2.54

Problem: Assign k′w to the following record: `Clc1ccc(CCNCCNCCc2cccc(Br)c2)cc1Cl`
Solution: 3.06

Problem: Assign k′w to the following record: `Clc1ccc(CCNCCNCCc2ccccc2Br)cc1Cl`
Solution: 3.09

Problem: Assign k′w to the following record: `Fc1ccc(CCNCCNCCc2ccc(Cl)c(Cl)c2)cc1`
Solution: 2.54
